- experimental.target: Full length Cereblon protein (6His tev Cereblon/6His tev DDB1ΔBPB) (Homo sapiens, UniProt Q96SW2)
- Construct: Full length Cereblon protein (6His tev Cereblon/6His tev DDB1ΔBPB) was expressed and purified from E. coli; made in house; host or cells: E. coli
- assay.info: Cereblon Binding Assay (TR-FRET)
- applied.conditions: 5 nM protein, 50 nM Alexa647-lenalidomide ligand, read-out: Mean pIC50 (converted)
property.measured: IC50 (nM)
Return type: number; implicit unit nM.

The following compounds have reported results that may help.
- compound: "CCn1ccc2c(N3CCC(=O)NC3=O)cncc21 [ECB51]"
  measure.unit: "nM"
  IC50: 25.1
- compound: "Cc1ccc(N2CCC(=O)NC2=O)c2ccn(C)c12 [ECB49]"
  measure.unit: "nM"
  IC50: 20
- compound: "CC(C)n1ccc2c(N3CCC(=O)NC3=O)cc(C(=O)N3CCNCC3)cc21 [ECB11]"
  measure.unit: "nM"
  IC50: 2.51

Problem: Annotate the compound O=C1CCN(c2cccc3c2ccn3C[C@]2(F)CCCNC2)C(=O)N1 [ECB29] with its measured IC50.
Result: 120

Problem: Consider the compound CC(C)n1ccc2c(N3CCC(=O)NC3=O)cc(C(=O)N(C)CC3CCNCC3)cc21 [ECB16] . State its measured IC50.
Result: 31.6

Problem: Supply recorded IC50 for Cn1ccc2c(N3CCC(=O)NC3=O)cccc21 [ECB45] here.
Result: 100

----------
- experimental.target: Androgen Receptor (Homo sapiens, UniProt P10275, T878A)
- Construct: the AR gene was modified, using CRISPR/Cas9 editing, so the expressed AR protein included an 11 amino acid HiBiT tag; endogenous in cells; host or cells: clonal LnCaP-derived line, AR gene edited by CRISPR/Cas9
- Sequence (P10275 whole entry T878A): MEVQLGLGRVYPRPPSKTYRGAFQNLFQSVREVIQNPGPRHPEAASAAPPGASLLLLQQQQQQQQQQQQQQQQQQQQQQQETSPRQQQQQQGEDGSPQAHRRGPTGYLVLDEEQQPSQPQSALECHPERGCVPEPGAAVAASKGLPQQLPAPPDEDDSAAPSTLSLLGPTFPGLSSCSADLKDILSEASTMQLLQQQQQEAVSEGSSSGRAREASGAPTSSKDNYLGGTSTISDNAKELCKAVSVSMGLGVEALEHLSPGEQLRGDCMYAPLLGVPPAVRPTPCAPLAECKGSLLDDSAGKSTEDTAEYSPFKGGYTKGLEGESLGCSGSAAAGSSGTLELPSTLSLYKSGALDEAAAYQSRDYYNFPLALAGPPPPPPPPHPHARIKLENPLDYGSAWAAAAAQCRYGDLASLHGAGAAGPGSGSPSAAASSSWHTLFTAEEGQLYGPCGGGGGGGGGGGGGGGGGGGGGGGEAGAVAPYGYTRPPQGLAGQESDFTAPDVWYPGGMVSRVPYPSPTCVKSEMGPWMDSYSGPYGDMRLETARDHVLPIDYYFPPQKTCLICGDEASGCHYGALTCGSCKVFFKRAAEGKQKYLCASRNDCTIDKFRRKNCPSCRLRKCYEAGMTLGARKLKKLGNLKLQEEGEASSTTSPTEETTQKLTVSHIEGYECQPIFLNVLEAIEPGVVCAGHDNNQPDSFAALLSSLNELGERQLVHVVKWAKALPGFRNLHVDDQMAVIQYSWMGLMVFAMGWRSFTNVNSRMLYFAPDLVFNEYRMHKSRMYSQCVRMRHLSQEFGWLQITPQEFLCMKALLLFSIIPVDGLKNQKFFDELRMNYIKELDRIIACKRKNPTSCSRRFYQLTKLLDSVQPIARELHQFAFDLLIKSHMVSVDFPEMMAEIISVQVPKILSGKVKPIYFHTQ
- Sequence (Q96SW2 whole entry partner): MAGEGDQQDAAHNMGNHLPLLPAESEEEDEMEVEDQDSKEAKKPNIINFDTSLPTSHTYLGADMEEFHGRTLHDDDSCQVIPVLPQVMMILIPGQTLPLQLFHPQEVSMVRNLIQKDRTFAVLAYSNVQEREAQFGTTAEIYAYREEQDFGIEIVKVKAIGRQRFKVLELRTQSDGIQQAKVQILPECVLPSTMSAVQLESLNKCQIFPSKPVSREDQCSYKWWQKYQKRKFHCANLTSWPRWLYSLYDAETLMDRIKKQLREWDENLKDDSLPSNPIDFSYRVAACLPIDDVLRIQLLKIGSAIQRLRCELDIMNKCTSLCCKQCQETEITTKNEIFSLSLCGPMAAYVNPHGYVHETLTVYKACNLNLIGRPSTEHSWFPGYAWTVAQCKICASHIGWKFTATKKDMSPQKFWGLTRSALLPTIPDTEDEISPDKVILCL
- Sequence (Q16531 whole entry partner): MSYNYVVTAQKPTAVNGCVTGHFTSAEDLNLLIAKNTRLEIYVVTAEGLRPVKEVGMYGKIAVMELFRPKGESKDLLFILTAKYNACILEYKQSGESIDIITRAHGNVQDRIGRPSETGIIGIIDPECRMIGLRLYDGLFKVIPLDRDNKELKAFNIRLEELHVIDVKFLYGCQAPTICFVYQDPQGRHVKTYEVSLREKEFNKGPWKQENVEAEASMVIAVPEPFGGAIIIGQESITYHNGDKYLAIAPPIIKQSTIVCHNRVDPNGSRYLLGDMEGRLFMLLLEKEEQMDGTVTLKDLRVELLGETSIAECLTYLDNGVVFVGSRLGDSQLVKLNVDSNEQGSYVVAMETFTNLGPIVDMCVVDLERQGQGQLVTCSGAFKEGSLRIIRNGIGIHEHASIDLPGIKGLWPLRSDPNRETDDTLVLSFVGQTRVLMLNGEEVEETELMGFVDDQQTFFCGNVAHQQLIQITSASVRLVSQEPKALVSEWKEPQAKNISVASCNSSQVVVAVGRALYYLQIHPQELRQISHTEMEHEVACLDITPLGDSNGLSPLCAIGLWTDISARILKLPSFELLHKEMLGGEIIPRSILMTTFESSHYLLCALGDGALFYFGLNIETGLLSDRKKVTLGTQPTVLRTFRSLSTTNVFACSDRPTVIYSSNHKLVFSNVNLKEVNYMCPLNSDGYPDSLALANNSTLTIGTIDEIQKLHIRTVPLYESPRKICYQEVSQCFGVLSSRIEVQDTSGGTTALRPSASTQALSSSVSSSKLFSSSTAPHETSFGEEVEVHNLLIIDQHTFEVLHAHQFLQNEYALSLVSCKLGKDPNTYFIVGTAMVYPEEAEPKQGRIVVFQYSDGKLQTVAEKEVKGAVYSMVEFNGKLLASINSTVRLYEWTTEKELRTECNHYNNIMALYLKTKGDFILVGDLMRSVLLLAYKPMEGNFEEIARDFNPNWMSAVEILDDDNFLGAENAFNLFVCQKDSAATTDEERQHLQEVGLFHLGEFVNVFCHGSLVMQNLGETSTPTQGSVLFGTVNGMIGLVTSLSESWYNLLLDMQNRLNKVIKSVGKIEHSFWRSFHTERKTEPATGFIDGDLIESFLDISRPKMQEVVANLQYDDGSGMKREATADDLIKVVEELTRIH
- assay.info: Androgen Receptor Degradation Assay (Nano-Glo HiBiT)
- Type: cell-based
- applied.conditions: LNCaP, 18 h, HiBiT-tagged AR in human LnCaP cells, read-out: mean asymptote max
Where a name gives a salt, the structure may show the parent alone.
property.measured: Dmax

Examples from the recorded data:
- compound: "C[C@@H]1CN(c2ccc(C#N)c(Cl)c2)[C@@H](C)CN1C(=O)Nc1ccc(N2CCC(CN3CCC(n4ccc5c(N6CCC(=O)NC6=O)cccc54)CC3)CC2)nc1"
  Dmax: "≥ 50%"
- compound: "C[C@@H]1CN(C(=O)Nc2ccc(N3CCC(CN4CCC(n5ncc6c(N7CCC(=O)NC7=O)cccc65)CC4)CC3)nc2)[C@@H](C)CN1c1ccc(C#N)c(Cl)c1 [EAR138, formic acid salt]"
  Dmax: "≥ 50%"
- compound: "N#Cc1ccc(O[C@H]2CC[C@H](NC(=O)c3ccc(N4CCC(C#N)(CCN5CCC(n6ncc7c(N8CCC(=O)NC8=O)cccc76)CC5)CC4)nn3)CC2)cc1Cl"
  Dmax: "≥ 50%"
- compound: "N#Cc1ccc(O[C@H]2CC[C@H](NC(=O)c3ccc(N4CCC(CN5CCC(n6ncc7c(N8CCC(=O)NC8=O)nccc76)CC5)CC4)nn3)CC2)cc1C(F)(F)F"
  Dmax: "≥ 50%"

# next compound below
Problem: For the compound "N#Cc1ccc(O[C@H]2CC[C@H](NC(=O)c3ccc(N4CCO[C@@H](CN5CCC(n6ccc7c(N8CCC(=O)NC8=O)cccc76)CC5)C4)nn3)CC2)cc1Cl" , give its measured Dmax value.
Result: ≥ 50%
